# credit: patent US11384060B2

- Measurement target: glucagon receptor (GCGR) overexpressed CHO-K1 cells or human primary hepatocytes (Homo sapiens, UniProt P47871)
- Construct: expressed in transfected cells; host or cells: GCGR overexpressed CHO-K1 cells or human primary hepatocytes (endogenous receptor)
- Sequence (P47871 26-477): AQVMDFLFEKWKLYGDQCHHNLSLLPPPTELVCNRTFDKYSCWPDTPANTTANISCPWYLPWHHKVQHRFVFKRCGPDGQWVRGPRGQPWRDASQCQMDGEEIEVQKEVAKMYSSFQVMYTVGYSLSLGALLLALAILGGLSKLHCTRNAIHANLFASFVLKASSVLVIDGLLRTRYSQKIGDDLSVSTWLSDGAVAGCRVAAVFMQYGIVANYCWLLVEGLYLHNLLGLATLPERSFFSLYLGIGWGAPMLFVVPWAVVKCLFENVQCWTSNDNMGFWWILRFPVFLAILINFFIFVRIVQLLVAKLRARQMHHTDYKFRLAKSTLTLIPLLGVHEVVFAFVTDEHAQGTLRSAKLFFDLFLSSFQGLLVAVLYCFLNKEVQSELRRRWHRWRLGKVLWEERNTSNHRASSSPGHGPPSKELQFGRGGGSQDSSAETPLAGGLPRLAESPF
- Protocol details: Glucagon cAMP inhibition assay (Cisbio cAMP Dynamic 2 HTRF)
- Assay type: cell-based
Parameter: IC50 cAMP (µM)

Compound	Reading unit	IC50 cAMP
CC(C)CC[C@@H](Cc1ccc(-c2ccc(C(F)(F)F)cc2)cc1)Nc1ccc(C(=O)NCCC(=O)O)cc1 [Compound 19-10]	µM	0.373

I: CCCC[C@H](Nc1ccc(C(=O)NCCC(=O)O)cc1)C(=O)Nc1ccc(-c2cc3ccccc3o2)cc1 [Compound 23-35]
II: O=C(O)CCNC(=O)c1ccc(N[C@@H](Cc2cccc3ccccc23)C(=O)Nc2ccc(-c3cc4ccccc4o3)cc2)cc1 [Compound 23-16]
Of the two listed items, I and II , which carries the larger IC50 cAMP figure? Choose, then provide that item's label.
I
(I: 15.397 µM, II: 1.193 µM)

###

- Measurement target: glucagon receptor (GCGR) overexpressed CHO-K1 cells or human primary hepatocytes (Homo sapiens, UniProt P47871)
- Construct: expressed in transfected cells; host or cells: GCGR overexpressed CHO-K1 cells or human primary hepatocytes (endogenous receptor)
- Protocol details: Glucagon cAMP inhibition assay (Cisbio cAMP Dynamic 2 HTRF)
- Assay type: cell-based
Parameter: IC50 cAMP (µM)

Smiles input	IC50 cAMP (µM)
CCCOC[C@H](Cc1ccc(-c2cccc(OC(F)(F)F)c2)cc1)Nc1ccc(C(=O)NCCC(=O)O)cc1	1.513

1: CC(C)COC[C@@H](Cc1ccc(-c2ccc(OC(F)(F)F)cc2)cc1)Nc1ccc(C(=O)NCCC(=O)O)cc1
2: CCOC(=O)CCNC(=O)c1ccc(N[C@H](CC(C)C)C(=O)Nc2ccc(-c3cc4ccccc4o3)cc2)cc1
3: CC(C)(C)c1ccc(-c2ccc(OC[C@@H](Nc3ccc(C(=O)NCCC(=O)O)cc3)c3ccccc3)nc2)cc1
Please produce an ascending ranking of these compounds based on IC50 cAMP. Form entry: ranked labels (order as requested).
1, 2, 3

###

- Measurement target: glucagon receptor (GCGR) (Homo sapiens, UniProt P47871)
- Construct: expressed in transfected cells; host or cells: CHO-K1 cells overexpressing GCGR (membrane fractions)
- Sequence (P47871 26-477): as above
- Protocol details: I125-glucagon binding assay (competition, GCGR membrane fractions)
pIC50: −log10 of the molar value.
Parameter: pIC50

See these solved cases before continuing.
Compound	pIC50
CC(C)C[C@@H](COc1ccc(-c2ccc(C(F)(F)F)cc2Cl)cn1)Nc1ccc(C(=O)NCCS(=O)(=O)O)cc1 [Compound 15-18]	5.88
CC(C)C[C@H](Cc1ccc(-c2cc3ccccc3o2)cc1)Nc1ccc(C(=O)NCCC(=O)O)cc1 [Compound 19-5]	6.79
CCCOC[C@H](Cc1ccc(-c2cc3ccccc3o2)cc1)Nc1ccc(C(=O)NCCC(=O)O)cc1 [Compound 19-26]	6.23
CC(C)(C)c1ccc(-c2ccc(OC[C@@H](Nc3ccc(C(=O)NCCC(=O)O)cc3)c3ccccc3)nc2)cc1 [Compound 15-4]	6.20
O=C(O)CCNC(=O)c1ccc(N[C@H](Cc2ccc(-c3ccc(C(F)(F)F)cc3)cc2)C(=O)Nc2ccc(OC(F)(F)F)cc2)cc1 [Compound 24-28]	7.33

a: CCCOC[C@H](Cc1ccc(-c2ccc(C(F)(F)F)cc2)cc1)Nc1ccc(C(=O)NCCC(=O)O)cc1 [Compound 19-22]
b: CCOC(=O)CCNC(=O)c1ccc(N[C@@H](Cc2ccc(F)cc2)C(=O)Nc2ccc(-c3cc4ccccc4o3)cc2)cc1 [Compound 23-9]
c: O=C(O)CCNC(=O)c1ccc(N[C@@H](Cc2ccc(F)cc2)C(=O)Nc2ccc(-c3cc4ccccc4o3)cc2)cc1 [Compound 23-10]
d: CCCC[C@@H](COc1ccc(-c2ccc(C(F)(F)F)cc2F)cn1)Nc1ccc(C(=O)NCCC(=O)O)cc1 [Compound 15-26]
e: CC(C)C[C@H](Nc1ccc(C(=O)NCCC(=O)O)cc1)C(=O)Nc1ccc(-c2cc3ccccc3s2)cc1 [Compound 23-12]
Arrange the 5 compounds from largest to smallest pIC50. Form entry: ranked labels (order as requested).
c, d, e, a, b
